HC50 at 0.5 h by entry:
- PROTOCOL SUMMARY: Hemolytic activity against human RBC assessed as hemolysis after 30 mins by colorimetric method
- Type: ADME, cell-based, Erythrocyte
- RUN PARAMETERS: human red blood cells (erythrocytes)
Please respond with the number in µM and leave the unit unwritten.

Give me measured HC50 at 0.5 h, please, for this compound: CCCCN1C(=O)[C@@H](Cc2ccccc2)NC(=O)[C@H](CC(C)C)NC(=O)[C@H](CCCN)NC(=O)[C@H]([C@@H](C)CC)NC(=O)C2=CC3=C4CCCC4=C4C=C(S[C@]4(C)[C@@]3(C)S2)C(=O)[C@H]2CCCN2C(=O)[C@H](CC(C)C)NC(=O)[C@H](CCCN)NC(=O)[C@H]([C@@H](C)CC)NC(=O)[C@@H]1CC(C)C 13

Please report HC50 at 0.5 h for the following compound: CC(C)[C@@H]1NC(=O)[C@H](CCCN)NC(=O)[C@H]([C@H](O)C(C)C)NC(=O)C2=CC3=C4CCCC4=C4C=C(S[C@]4(C)[C@@]3(C)S2)C(=O)[C@H]2CCCN2C(=O)[C@H](C(C)C)NC(=O)[C@H](CCCN)NC(=O)[C@H]([C@H](O)C(C)C)NC(=O)[C@@H]2CCCN2C(=O)[C@@H](Cc2ccccc2)NC1=O 160

Provide HC50 at 0.5 h value for the following compound: CC[C@H](C)[C@@H]1NC(=O)c2cc(c(C)s2)C2=C(CCC2)c2cc(sc2C)C(=O)[C@H]2CCCN2C(=O)[C@H]([C@@H](C)CC)NC(=O)[C@H](CCCN)NC(=O)[C@H](CC(C)C)NC(=O)[C@H](CC(C)C)N(C)C(=O)[C@@H](Cc2ccccc2)NC(=O)[C@H]([C@@H](C)CC)NC(=O)[C@H](CCCN)NC1=O 3

* * *

- PROTOCOL SUMMARY: Therapeutic index, ratio of HC50 for human RBC to MIC for Bacillus subtilis DSM 347
- Assay type: toxicity
- RUN PARAMETERS: human red blood cells versus Bacillus subtilis DSM 347
Measured selectivity ratio values are reported for all entries that follow.

• CC(C)C[C@@H]1NC(=O)[C@H](CCCCN)NC(=O)[C@H](C(C)C)NC(=O)C2=CC3=C4CCCC4=C4C=C(S[C@]4(C)[C@@]3(C)S2)C(=O)[C@H]2CCCN2C(=O)[C@H](CC(C)C)NC(=O)[C@H](CCCCN)NC(=O)[C@H](C(C)C)NC(=O)[C@H](CCCCN)NC(=O)[C@H](CC(C)C)NC(=O)[C@H](CCCCN)N(C)C(=O)[C@@H](Cc2ccccc2)NC(=O)[C@H](C(C)C)NC(=O)[C@H](CCCCN)NC1=O = 9
• Cc1sc2cc1C1=C(CCC1)c1cc(sc1C)C(=O)[C@H]1CCCN1C(=O)[C@H](CC(C)C)NC(=O)[C@H](CCCCN)NC(=O)[C@H](C(C)C)NC(=O)[C@H](CCCCN)N(C)C(=O)[C@@H](Cc1ccccc1)NC(=O)[C@H](CC(C)C)NC(=O)[C@H](CCCCN)NC(=O)[C@H](C(C)C)NC2=O = 1.3
• Cc1sc2cc1C1=C(CCC1)c1cc(sc1C)C(=O)[C@H]1CCCN1C(=O)[C@H](Cc1ccc(O)cc1)NC(=O)[C@H](CCCN)NC(=O)[C@H](C(C)C)NC(=O)[C@@H]1CCCN1C(=O)[C@@H](Cc1ccccc1)NC(=O)[C@H](Cc1ccc(O)cc1)NC(=O)[C@H](CCCN)NC(=O)[C@H](C(C)C)NC2=O = 1
• CC[C@H](C)[C@@H]1NC(=O)C2=CC3=C4CCCC4=C4C=C(S[C@]4(C)[C@@]3(C)S2)C(=O)[C@H]2CCCN2C(=O)[C@H]([C@@H](C)CC)NC(=O)[C@H](CCCN)NC(=O)[C@H](CC(C)C)NC(=O)[C@H](CC(C)C)N(C)C(=O)[C@@H](Cc2ccccc2)NC(=O)[C@H]([C@@H](C)CC)NC(=O)[C@H](CCCN)NC1=O = 9
• C[C@@H](O)[C@@H]1NC(=O)[C@H](C23CC4CC(CC(C4)C2)C3)NC(=O)[C@H](CCCN)NC(=O)[C@@H]2CCCN2C(=O)[C@@H](Cc2ccccc2)NC(=O)[C@H](CCCN)NC(=O)[C@H](C23CC4CC(CC(C4)C2)C3)NC(=O)[C@H](CCCN)NC(=O)C2=CC3=C4CCCC4=C4C=C(S[C@]4(C)[C@@]3(C)S2)C(=O)[C@H]2CCCN2C1=O = 6.5

Return selectivity ratio for the following compound: CC(C)[C@@H]1NC(=O)[C@H](CCCN)NC(=O)[C@H]([C@H](O)C(C)C)NC(=O)C2=CC3=C4CCCC4=C4C=C(S[C@]4(C)[C@@]3(C)S2)C(=O)[C@H]2CCCN2C(=O)[C@H](C(C)C)NC(=O)[C@H](CCCN)NC(=O)[C@H]([C@H](O)C(C)C)NC(=O)[C@@H]2CCCN2C(=O)[C@@H](Cc2ccccc2)NC1=O 13.3

Retrieve selectivity ratio measured for Cc1sc2cc1C1=C(CCC1)c1cc(sc1C)C(=O)[C@H]1CCCN1C(=O)[C@H](C(C)C)NC(=O)[C@H](CCCN)NC(=O)[C@H]([C@H](O)C(C)C)NC(=O)[C@@H]1CCCN1C(=O)[C@@H](Cc1ccccc1)NC(=O)[C@H](C(C)C)NC(=O)[C@H](CCCN)NC(=O)[C@H]([C@H](O)C(C)C)NC2=O and print it. 53.3

Supply recorded selectivity ratio for Cc1sc2cc1C1=C(CCC1)c1cc(sc1C)C(=O)[C@H]1CCCN1C(=O)[C@H](CCCCN)NC(=O)[C@H](C13CC4CC(CC(C4)C1)C3)NC(=O)[C@H](CCCN)NC(=O)[C@@H]1CCCN1C(=O)[C@@H](Cc1ccccc1)NC(=O)[C@H](CCCN)NC(=O)[C@H](C13CC4CC(CC(C4)C1)C3)NC(=O)[C@H](CCCN)NC2=O here. 0.3
